- assay.notes: Bidirectional Caco-2 permeability assay
- Type: in vitro ADME
- details: human, Caco-2
Kindly state Papp A→B at 90 min for each of the entries shown.
One number for each entry, in ×10⁻⁶ cm/s.

// known answers, use as guide
> print(dat)
                                     smiles       quantity.kind  measured.value
1  CCC(CC)C(=O)Nc1ncnn2c([C@]3(C#N)O[C@H](COC(=O)CC4CCCC4)[C@@H](OC(=O)[C@H](N)C(C)(C)C)[C@H]3O)ccc12  Papp A→B at 90 min             2.5
2  COC(C)(C)C(=O)Nc1ncnn2c([C@]3(C#N)O[C@H](COC(=O)CC4CCCCC4)[C@@H](OC(=O)[C@H](N)C(C)(C)C)[C@H]3O)ccc12  Papp A→B at 90 min            3.22
3  CCCCCC(=O)Nc1ncnn2c([C@]3(C#N)O[C@H](COC(=O)CC4CCCC4)[C@@H](OC(=O)[C@@H](N)C(C)(C)C)[C@H]3O)ccc12  Papp A→B at 90 min            2.74

For the 2 molecules below, give their Papp A→B at 90 min values.
1. CCC(=O)O[C@H]1[C@@H](O)[C@](C#N)(c2ccc3c(NC(=O)OCOC(C)=O)ncnn23)O[C@@H]1COC(=O)[C@@H](N)C(C)(C)C
2. CCCCCCOC(=O)Nc1ncnn2c([C@]3(C#N)O[C@H](COC(=O)[C@@H](N)C(C)(C)C)[C@@H](O)[C@H]3O)ccc12

[1.49, 1.41]

get_value(item= CCCCOC(C)(C)C(=O)Nc1ncnn2c([C@]3(C#N)O[C@H](COC(=O)CC4CCCCCC4)[C@@H](OC(=O)[C@H](N)C(C)(C)C)[C@H]3O)ccc12 , readout=Papp A→B at 90 min) returns 0.22

* * *

- assay.notes: Bidirectional Caco-2 permeability assay
- Assay type: in vitro ADME
- details: human, Caco-2
quantity.kind: efflux ratio at 90 min
Give bare numbers.

> print(dat)
                                     smiles  measured.value
1  CCC(CC)C(=O)Nc1ncnn2c([C@]3(C#N)O[C@H](COC(=O)CC4CCCCC4)[C@@H](OC(=O)[C@H](N)C(C)(C)C)[C@H]3O)ccc12            1.37
2  CCCCOC(C)(C)C(=O)Nc1ncnn2c([C@]3(C#N)O[C@H](COC(=O)CC4CCCCC4)[C@@H](OC(=O)[C@@H](N)C(C)(C)C)[C@H]3O)ccc12               1

For the 3 molecules below, give their efflux ratio at 90 min values.
1. CCCCOC(C)(C)C(=O)Nc1ncnn2c([C@]3(C#N)O[C@H](COC(=O)CC4CCCCCC4)[C@@H](OC(=O)[C@H](N)C(C)(C)C)[C@H]3O)ccc12
2. CCC(=O)O[C@H]1[C@@H](O)[C@](C#N)(c2ccc3c(NC(=O)OCOC(C)=O)ncnn23)O[C@@H]1COC(=O)[C@@H](N)C(C)(C)C
3. CCOC(C)(C)C(=O)Nc1ncnn2c([C@]3(C#N)O[C@H](COC(=O)CC4CCCCC4)[C@@H](OC(=O)[C@@H](N)C(C)(C)C)[C@H]3O)ccc12

0.52
0.69
1.07
